FYI, the data here is from PubChem BioAssay (NCI).

Test system: BT-549 breast
Assay: NCI-60 one-dose screen, 48 h (100 = growth as untreated, 0 = no growth, -100 = all killed)
Settings: 10 µM unless noted
This is part of a sample that, as a whole, favours compounds with a hit. Of some 83,000 tested, about 20% had one in any assay.
The entries below come with measured growth values attached.
property measured: growth (%)

molecule="Cc1[nH]c(C(=O)Nc2ccc(C(N)=O)cc2N2CCOC(C)C2)c(Cl)c1Cl (centres undefined)" result_number=98.3
molecule=COc1ccc(C(C)=C(c2ccc(OCCN3CCCCCC3)cc2)c2ccc(OCCN3CCCCCC3)cc2)cc1 result_number=13.2
molecule=COc1ccc(/C=N/NC(=O)CSc2nc(-c3cnccn3)cc(-c3cccs3)c2C#N)cc1 result_number=49.2
molecule="CC[C@]12C=CCN3CC[C@]4(C(=C(C(=O)OC)C1)Nc1cc5c(cc14)[C@@H]1[C@H](O5)[C@@H](O)[C@@]4(CC)CC(C(=O)OC)=C5Nc6cc(O)ccc6[C@@]56CCN1C46)C32 (some centres undefined)" result_number=18.8

====

Tested on: M14 melanoma
Experiment: NCI-60 one-dose screen, 48 h
Conditions: 10 µM unless noted
Protocol: Growth inhibition of the M14 human tumor cell line is measured as a screen for anti-cancer activity. Cells are grown in 96 well plates and exposed to the test compound for 48 hours. Compounds are tested at a single concentration, which is 10^-5 M for most compounds. The reported endpoint is percent growth (GI% or GIPRCNT), where numbers from 0 - 100% represent growth inhibition, and numbers from -100% - 0 represent cell death. For example, a value of 40 represents 60% growth inhibition. […]
This is part of a sample that, as a whole, favours compounds with a hit. Of some 83,000 tested, about 20% had one in any assay. Calls of active or inactive are those of the source. Rule for the calls: active = growth percent below 10; inactive = the rest.
Labels: active, inactive

compound=CCN(CC)c1ccc(/C=N/NC(=O)c2ccc(S(N)(=O)=O)cc2)c(O)c1 classification=active
compound=CN1CCN(Cc2ccc(NC(=O)c3cncc(C#Cc4cnc5ccc(N6CCOCC6)nn45)c3)cc2C(F)(F)F)CC1 classification=active
compound=CC(=O)c1c([Si](C)(C)C)c2cc(C#N)ccn2c1C(=O)c1ccc(Br)cc1 classification=inactive
compound=CN1CCN(Cc2ccc(NC(=O)c3cncc(C#Cc4cnc5ccc(OCCCS(C)(=O)=O)nn45)c3)cc2C(F)(F)F)CC1 classification=active
compound="CC1=Cc2ccccc2OC12C=Cc1ccccc1O2 (stereo not given)" classification=inactive

====

Below is a list of entries, each paired with its recorded growth value.
Tested on: MALME-3M melanoma
Experiment: NCI-60 one-dose screen, 48 h (100 = growth as untreated, 0 = no growth, -100 = all killed)
Details: 10 µM unless noted
Compounds without any hit were thinned out: in the full panel of roughly 83,000, 20% have a hit.
property measured: growth (%)

input_smiles=Cc1ccc(NC(=O)/C=C/c2ccc(OCCCOc3ccc4c(C)cc(=O)oc4c3)cc2)cc1 property_measured=growth result_unit=% result_number=44.8
input_smiles=CCOC(=O)c1cccc(NC2=C(Cl)C(=O)C(C)=C(C)C2=O)c1 property_measured=growth result_unit=% result_number=104
input_smiles=O=C(CSc1nc2ccccc2c(=O)n1-c1ccc(Cl)c(Cl)c1)Nc1ccc(S(=O)(=O)Nc2ccc(Cl)nn2)cc1 property_measured=growth result_unit=% result_number=98.5
input_smiles=COC(=O)CCSC1=C(C)C(=O)c2ccccc2C1=O property_measured=growth result_unit=% result_number=104
